B1: POU domain, class 3, transcription factor 1, residues 247 to 324; numbered along this chain, Q03052 (parent)
chain: EDAPSSDDLEQFAKQFKQRRIKLGFTQADVGLALGTLYGNVFSQTTICRFEALQLSFKNMCKLKPLLNKWLEETDSSS

Variants of: B1
Method summary: abundance fitness (aPCA) (normalised: wild type 0, dead -1); higher = more abundant; growth selection in yeast, the domain comes from the species named
Reported conditions: Homo sapiens
Think of -0.06 as a floor: if abundance fitness stands on it or above, it is met; beneath it, not met.

The following variants have reported results that may help.
- Mutation annotation: "N40W"
  Group: "not met"
- Mutation annotation: "Y38F"
  Group: "not met"
- Mutation annotation: "Y38E"
  Group: "not met"
- Mutation annotation: "L53W"
  Group: "not met"
- Mutation annotation: "T46D"
  Group: "met"
- Mutation annotation: "T45H"
  Group: "met"
- Mutation annotation: "E72K"
  Group: "met"
- Mutation annotation: "N68T"
  Group: "met"

Textbook exercise: given the entry `T36G` , state whether its abundance fitness is greater than or equal to -0.06.
not met

Textbook exercise: given the entry `A33H` , state whether its abundance fitness is greater than or equal to -0.06.
not met

Textbook exercise: given the entry `N59M` , state whether its abundance fitness is greater than or equal to -0.06.
met
